Where these numbers come from: paper PMC4666032

System: DU145
assayProtocol: Growth/viability assay, IC50 at 72 h
Assay type: cell-based
conditionsUsed: Homo sapiens, DU-145; DU145, Fig. 2g
pIC50: −log10 of the molar value.
endpointName: pIC50

COc1cc(-c2ncn(/C=C\C(=O)OC(C)C)n2)cc(C(F)(F)F)c1
6.75
CC(C)OC(=O)/C=C\n1cnc(-c2cccc(Cl)c2)n1
7.26
COc1cc(-c2ncn(/C=C\c3nnco3)n2)cc(C(F)(F)F)c1
6.87
CC(C)OC(=O)/C=C\n1cnc(-c2cc(OC(C)C)cc(C(F)(F)F)c2)n1
7.05
O=C(/C=C\n1cnc(-c2cc(C(F)(F)F)cc(C(F)(F)F)c2)n1)NNc1cnccn1
6.98
FC(F)(F)c1cc(-c2ncn(/C=C\c3nnco3)n2)cc(C(F)(F)F)c1
6.44

---

# pIC50 per record follows
Test system: LnCaP-C81
assayProtocol: Growth/viability assay, IC50 at 72 h
Format: cell-based
conditionsUsed: Homo sapiens; C-81, Fig. 2g
pIC50: −log10 of the molar value.
endpointName: pIC50

COc1cc(-c2ncn(/C=C\C(=O)OC(C)C)n2)cc(C(F)(F)F)c1
6.70
O=C(/C=C\n1cnc(-c2cc(C(F)(F)F)cc(C(F)(F)F)c2)n1)NNc1cnccn1
7.10
CC(C)OC(=O)/C=C\n1cnc(-c2cccc(Cl)c2)n1
7.70
COc1cc(-c2ncn(/C=C\c3nnco3)n2)cc(C(F)(F)F)c1
6.74
CC(C)OC(=O)/C=C\n1cnc(-c2cc(OC(C)C)cc(C(F)(F)F)c2)n1
6.80
FC(F)(F)c1cc(-c2ncn(/C=C\c3nnco3)n2)cc(C(F)(F)F)c1
6.62

---

# key: entry, value: IC50
Test system: PC3M-Ln4
assayProtocol: Growth/viability assay, IC50 at 72 h
Assay type: cell-based
conditionsUsed: Homo sapiens; PC3M-Ln4, Fig. 2g
endpointName: IC50 (nM)

COc1cc(-c2ncn(/C=C\c3nnco3)n2)cc(C(F)(F)F)c1 [KPT-225]
80
CC(C)OC(=O)/C=C\n1cnc(-c2cc(OC(C)C)cc(C(F)(F)F)c2)n1 [KPT-207]
60
COc1cc(-c2ncn(/C=C\C(=O)OC(C)C)n2)cc(C(F)(F)F)c1 [KPT-185]
200
FC(F)(F)c1cc(-c2ncn(/C=C\c3nnco3)n2)cc(C(F)(F)F)c1 [KPT-251]
210
O=C(/C=C\n1cnc(-c2cc(C(F)(F)F)cc(C(F)(F)F)c2)n1)NNc1cnccn1 [KPT-330]
90
CC(C)OC(=O)/C=C\n1cnc(-c2cccc(Cl)c2)n1 [KPT-127]
55
